Biological target: PRKX (Homo sapiens, UniProt P51817)
Construct: purchased Carna Biosciences
Sequence (P51817 whole entry): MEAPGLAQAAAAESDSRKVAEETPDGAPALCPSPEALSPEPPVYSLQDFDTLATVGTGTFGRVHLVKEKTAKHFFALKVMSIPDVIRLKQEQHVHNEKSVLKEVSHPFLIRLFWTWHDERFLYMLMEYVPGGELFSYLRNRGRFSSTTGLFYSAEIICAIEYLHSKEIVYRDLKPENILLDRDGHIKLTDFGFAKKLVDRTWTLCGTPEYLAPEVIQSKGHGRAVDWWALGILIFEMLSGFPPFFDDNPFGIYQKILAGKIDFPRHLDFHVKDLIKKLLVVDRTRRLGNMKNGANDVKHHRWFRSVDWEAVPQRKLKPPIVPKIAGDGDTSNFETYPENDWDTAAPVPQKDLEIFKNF
Assay: Kinase panel profiling at 1 µmol/L (mobility shift assay, Carna)
Format: biochemical
Settings: 1 µmol/L of BTK inhibitor
reportedProperty: Percentage inhibition of kinase enzyme activity (%)

structureSmilesString | system | resultUnit | numericReadout
C=CC(=O)N1CCC[C@@H](n2nc(-c3ccc(Oc4ccccc4)cc3)c3c(N)ncnc32)C1 | PRKX (Homo sapiens, UniProt P51817) | % | 0.66
O=C(c1ccc(Oc2ccccc2)cc1Cl)c1c[nH]c2ncnc(N[C@@H]3CC[C@@H](CO)OC3)c12 | PRKX (Homo sapiens, UniProt P51817) | % | 1.65
COc1ccc(F)cc1C(=O)NCc1ccc(-c2nn([C@@H](C)C(F)(F)F)c(N)c2C(N)=O)cc1 | PRKX (Homo sapiens, UniProt P51817) | % | 9.51
CC#CC(=O)N1CCC[C@H]1c1nc(-c2ccc(C(=O)Nc3ccccn3)cc2)c2c(N)nccn12 | PRKX (Homo sapiens, UniProt P51817) | % | -4.59

---

# Percentage inhibition of kinase enzyme activity listing for each entry below
Target: MST1 (Homo sapiens, UniProt Q13043)
Construct: purchased Carna Biosciences
Sequence (Q13043 whole entry): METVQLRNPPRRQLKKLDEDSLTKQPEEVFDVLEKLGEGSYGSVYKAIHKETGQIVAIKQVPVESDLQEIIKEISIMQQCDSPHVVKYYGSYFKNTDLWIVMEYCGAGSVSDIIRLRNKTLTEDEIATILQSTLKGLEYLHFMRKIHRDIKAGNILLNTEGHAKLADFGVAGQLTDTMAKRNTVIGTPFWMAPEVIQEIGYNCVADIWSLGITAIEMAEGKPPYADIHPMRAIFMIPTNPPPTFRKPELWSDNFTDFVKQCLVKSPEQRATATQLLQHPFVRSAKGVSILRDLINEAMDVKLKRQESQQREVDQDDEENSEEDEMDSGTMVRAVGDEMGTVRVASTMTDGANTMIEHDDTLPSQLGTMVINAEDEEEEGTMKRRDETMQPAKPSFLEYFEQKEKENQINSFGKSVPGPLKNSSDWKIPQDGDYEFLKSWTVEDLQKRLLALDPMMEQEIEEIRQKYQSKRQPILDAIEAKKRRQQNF
Assay: Kinase panel profiling at 1 µmol/L (mobility shift assay, Carna)
Type: biochemical
Conditions: 1 µmol/L of BTK inhibitor
reportedProperty: Percentage inhibition of kinase enzyme activity (%)

compound | numericReadout
C=CC(=O)N1CCC[C@@H](n2nc(-c3ccc(Oc4ccccc4)cc3)c3c(N)ncnc32)C1 [ibrutinib] | 4.14
COc1ccc(F)cc1C(=O)NCc1ccc(-c2nn([C@@H](C)C(F)(F)F)c(N)c2C(N)=O)cc1 [pirtobrutinib] | 10.97
CC#CC(=O)N1CCC[C@H]1c1nc(-c2ccc(C(=O)Nc3ccccn3)cc2)c2c(N)nccn12 [acalabrutinib] | 3.91
O=C(c1ccc(Oc2ccccc2)cc1Cl)c1c[nH]c2ncnc(N[C@@H]3CC[C@@H](CO)OC3)c12 [nemtabrutinib] | 96.55

---

Biological target: CaMK2δ (Homo sapiens)
Construct: purchased Carna Biosciences
Sequence (Q13557 whole entry): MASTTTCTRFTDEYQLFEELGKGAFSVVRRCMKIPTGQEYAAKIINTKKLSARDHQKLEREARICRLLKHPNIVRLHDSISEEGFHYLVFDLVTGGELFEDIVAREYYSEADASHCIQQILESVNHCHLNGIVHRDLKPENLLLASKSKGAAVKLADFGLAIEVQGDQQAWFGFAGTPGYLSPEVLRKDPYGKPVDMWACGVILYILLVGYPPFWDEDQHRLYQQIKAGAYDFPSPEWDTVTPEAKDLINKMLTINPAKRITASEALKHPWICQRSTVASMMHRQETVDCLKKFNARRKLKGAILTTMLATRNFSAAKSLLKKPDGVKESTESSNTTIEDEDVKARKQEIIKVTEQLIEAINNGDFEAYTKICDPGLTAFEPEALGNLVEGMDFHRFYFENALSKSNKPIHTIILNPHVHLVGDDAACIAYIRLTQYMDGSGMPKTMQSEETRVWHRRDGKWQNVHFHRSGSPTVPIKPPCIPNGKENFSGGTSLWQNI
Assay: Kinase panel profiling at 1 µmol/L (mobility shift assay, Carna)
Assay type: biochemical
Details: 1 µmol/L of BTK inhibitor
reportedProperty: Percentage inhibition of kinase enzyme activity

compound | result
C=CC(=O)N1CCC[C@@H](n2nc(-c3ccc(Oc4ccccc4)cc3)c3c(N)ncnc32)C1 [ibrutinib] | -0.83%
O=C(c1ccc(Oc2ccccc2)cc1Cl)c1c[nH]c2ncnc(N[C@@H]3CC[C@@H](CO)OC3)c12 [nemtabrutinib] | 14.10%
CC#CC(=O)N1CCC[C@H]1c1nc(-c2ccc(C(=O)Nc3ccccn3)cc2)c2c(N)nccn12 [acalabrutinib] | -3.53%

---

Target: FLT3 (Homo sapiens)
Construct: purchased Carna Biosciences
Sequence (P36888 27-993): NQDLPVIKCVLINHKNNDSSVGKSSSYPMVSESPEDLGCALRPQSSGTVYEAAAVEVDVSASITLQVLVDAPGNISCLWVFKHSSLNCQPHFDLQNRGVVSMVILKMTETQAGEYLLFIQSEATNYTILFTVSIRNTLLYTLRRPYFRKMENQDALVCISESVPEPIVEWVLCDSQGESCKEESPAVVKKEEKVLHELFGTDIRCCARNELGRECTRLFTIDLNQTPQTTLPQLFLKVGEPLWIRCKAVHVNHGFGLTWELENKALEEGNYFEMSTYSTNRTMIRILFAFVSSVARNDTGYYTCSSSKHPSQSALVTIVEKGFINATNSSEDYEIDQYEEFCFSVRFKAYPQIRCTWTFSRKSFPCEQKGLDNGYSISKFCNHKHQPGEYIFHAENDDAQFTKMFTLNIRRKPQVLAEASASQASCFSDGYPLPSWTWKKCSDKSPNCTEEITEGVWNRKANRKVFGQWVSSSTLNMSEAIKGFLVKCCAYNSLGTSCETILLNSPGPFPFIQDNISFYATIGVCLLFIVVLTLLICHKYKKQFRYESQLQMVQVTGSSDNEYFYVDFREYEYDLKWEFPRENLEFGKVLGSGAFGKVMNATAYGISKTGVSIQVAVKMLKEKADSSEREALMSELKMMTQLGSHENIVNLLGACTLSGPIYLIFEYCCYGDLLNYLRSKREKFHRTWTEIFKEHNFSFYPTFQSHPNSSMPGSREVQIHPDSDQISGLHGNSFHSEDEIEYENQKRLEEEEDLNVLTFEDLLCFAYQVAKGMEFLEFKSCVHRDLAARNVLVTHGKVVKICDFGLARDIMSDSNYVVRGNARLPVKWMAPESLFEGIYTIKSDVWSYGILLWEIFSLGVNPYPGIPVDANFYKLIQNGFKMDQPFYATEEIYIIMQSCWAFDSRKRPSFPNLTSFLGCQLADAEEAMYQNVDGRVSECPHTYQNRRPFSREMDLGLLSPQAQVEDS
Test: Kinase panel profiling at 1 µmol/L (mobility shift assay, Carna)
Assay type: biochemical
Conditions: 1 µmol/L of BTK inhibitor
reportedProperty: Percentage inhibition of kinase enzyme activity

structureSmilesString | result
C=CC(=O)N1CCC([C@@H]2CCNc3c(C(N)=O)c(-c4ccc(Oc5ccccc5)cc4)nn32)CC1 | 6.34%
COc1ccc(F)cc1C(=O)NCc1ccc(-c2nn([C@@H](C)C(F)(F)F)c(N)c2C(N)=O)cc1 | -4.18%
CC#CC(=O)N1CCC[C@H]1c1nc(-c2ccc(C(=O)Nc3ccccn3)cc2)c2c(N)nccn12 | 3.27%
O=C(c1ccc(Oc2ccccc2)cc1Cl)c1c[nH]c2ncnc(N[C@@H]3CC[C@@H](CO)OC3)c12 | 99.30%
